- target.of.assay: wild-type CD38 (cADPR hydrolase activity) (Homo sapiens, UniProt P28907, N100D/N164A/N209D/N219D)
- Construct: Crystal structure of human CD38 extracellular domain; made in house
- Sequence (P28907 45-300 N100D/N164A/N209D/N219D limits assumed): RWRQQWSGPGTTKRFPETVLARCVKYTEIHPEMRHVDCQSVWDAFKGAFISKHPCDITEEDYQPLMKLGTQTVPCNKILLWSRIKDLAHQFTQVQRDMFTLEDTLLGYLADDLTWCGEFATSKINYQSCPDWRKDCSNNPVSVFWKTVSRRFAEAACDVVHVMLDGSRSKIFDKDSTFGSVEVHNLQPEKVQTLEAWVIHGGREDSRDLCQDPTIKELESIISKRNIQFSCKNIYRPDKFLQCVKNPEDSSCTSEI
- method.summary: Enzymatic assay for cADPR hydrolysis (inhibition of CD38-catalyzed cADPR hydrolysis, fluorimetric cycling assay)
- Assay type: biochemical
- condition.description: 1 µM cADPR, 2 µg/mL CD38, pH 4.5; inhibitor tested 0–1 mM; read-out: IC50, inhibition of cADPR hydrolysis by CD38
value.type: IC50

compound="NCCCCNc1nc2c(=O)n3cnc2n1[C@@H]1O[C@H](COP(=O)(O)OP(=O)(O)OC[C@H]2O[C@@H]3[C@H](O)[C@@H]2O)[C@@H](O)[C@H]1O [8-(4-Aminobutane)amino N1-cIDPR, 8-(4-aminobutane)amino N1-cIDPR]" result="> 1 mM"
compound="O=c1c2nc(I)[nH]c2ncn1[C@@H]1O[C@H](COP(=O)(O)O)[C@@H](O)[C@H]1O [8-Iodo N1-IMP, 8-iodo N1-IMP]" result="> 1 mM"

----------
- target.of.assay: CD38 NAD+ glycohydrolase activity (Homo sapiens, UniProt P28907, N100D/N164A/N209D/N219D)
- Construct: Crystal structure of human CD38 extracellular domain
- Sequence (P28907 45-300 N100D/N164A/N209D/N219D limits assumed): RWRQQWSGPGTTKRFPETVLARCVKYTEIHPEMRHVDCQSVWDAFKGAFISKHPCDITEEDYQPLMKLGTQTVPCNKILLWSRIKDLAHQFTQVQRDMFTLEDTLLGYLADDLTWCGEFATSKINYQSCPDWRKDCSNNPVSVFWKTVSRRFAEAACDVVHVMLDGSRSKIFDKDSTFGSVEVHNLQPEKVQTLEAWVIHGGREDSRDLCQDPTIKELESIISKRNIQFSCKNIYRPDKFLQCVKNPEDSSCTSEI
- method.summary: Enzymatic assay for NAD+ hydrolase (NADase) activity of CD38
- condition.description: 1 µM NAD+, 0.1 µg/mL CD38, 1 min, 20–24°C, pH 4.5; Figure S1; read-out: IC50, inhibition of NADase activity of CD38
value.type: IC50 (µM)

structure_string=Nc1nc2c(=O)n3cnc2n1[C@@H]1O[C@H](COP(=O)(O)OP(=O)(O)OC[C@H]2O[C@@H]3[C@H](O)[C@@H]2O)[C@@H](O)[C@H]1O value_type=IC50 unit_spec=µM recorded_number=21

----------
- target.of.assay: wild-type CD38 (cADPR hydrolase activity) (Homo sapiens, UniProt P28907, N100D/N164A/N209D/N219D)
- Construct: Crystal structure of human CD38 extracellular domain; made in house
- method.summary: Enzymatic assay for cADPR hydrolysis (inhibition of CD38-catalyzed cADPR hydrolysis, fluorimetric cycling assay)
- Format: biochemical
- condition.description: 1 µM cADPR, 2 µg/mL CD38, 10 min, 20–24°C, pH 4.5; read-out: IC50, inhibition of cADPR hydrolysis by CD38
Just a reminder that ties go to -1: only IC50 strictly below 60 µM counts as 1.

compound=Nc1nc2c(=O)n3cnc2n1[C@@H]1O[C@H](COP(=O)(O)OP(=O)(O)OC[C@H]2O[C@@H]3[C@H](O)[C@@H]2O)[C@@H](O)[C@H]1O label_class=1
compound="O=c1c2nc[nH]c2ncn1[C@@H]1O[C@H](COP(=O)(O)O)[C@@H](O)[C@H]1O [N1-IMP, N1-inosine 5′-monophosphate]" label_class=1
compound="N=c1c2ncn3c2ncn1[C@@H]1C[C@H](COP(=O)(O)OP(=O)(O)OC[C@H]2O[C@@H]3[C@H](O)[C@@H]2O)[C@@H](O)[C@H]1O [cADPcR, cyclic ADP-carbocyclic ribose, reference compound]" label_class=-1
compound=O=c1c2nc(Br)[nH]c2ncn1[C@@H]1O[C@H](COP(=O)(O)O)[C@@H](O)[C@H]1O label_class=-1
compound=Nc1nc2c(=O)n([C@@H]3O[C@H](COP(=O)(O)O)[C@@H](O)[C@H]3O)cnc2[nH]1 label_class=1
